The origin of these recorded values is patent US20230364070A1.

Molecular target: Ba/F3 cells with EGFR exon 20 NPG Ins D770_N771 (Homo sapiens, UniProt P00533, INS770NPG)
Sequence (P00533 with tags, fused parts or gaps INS770NPG): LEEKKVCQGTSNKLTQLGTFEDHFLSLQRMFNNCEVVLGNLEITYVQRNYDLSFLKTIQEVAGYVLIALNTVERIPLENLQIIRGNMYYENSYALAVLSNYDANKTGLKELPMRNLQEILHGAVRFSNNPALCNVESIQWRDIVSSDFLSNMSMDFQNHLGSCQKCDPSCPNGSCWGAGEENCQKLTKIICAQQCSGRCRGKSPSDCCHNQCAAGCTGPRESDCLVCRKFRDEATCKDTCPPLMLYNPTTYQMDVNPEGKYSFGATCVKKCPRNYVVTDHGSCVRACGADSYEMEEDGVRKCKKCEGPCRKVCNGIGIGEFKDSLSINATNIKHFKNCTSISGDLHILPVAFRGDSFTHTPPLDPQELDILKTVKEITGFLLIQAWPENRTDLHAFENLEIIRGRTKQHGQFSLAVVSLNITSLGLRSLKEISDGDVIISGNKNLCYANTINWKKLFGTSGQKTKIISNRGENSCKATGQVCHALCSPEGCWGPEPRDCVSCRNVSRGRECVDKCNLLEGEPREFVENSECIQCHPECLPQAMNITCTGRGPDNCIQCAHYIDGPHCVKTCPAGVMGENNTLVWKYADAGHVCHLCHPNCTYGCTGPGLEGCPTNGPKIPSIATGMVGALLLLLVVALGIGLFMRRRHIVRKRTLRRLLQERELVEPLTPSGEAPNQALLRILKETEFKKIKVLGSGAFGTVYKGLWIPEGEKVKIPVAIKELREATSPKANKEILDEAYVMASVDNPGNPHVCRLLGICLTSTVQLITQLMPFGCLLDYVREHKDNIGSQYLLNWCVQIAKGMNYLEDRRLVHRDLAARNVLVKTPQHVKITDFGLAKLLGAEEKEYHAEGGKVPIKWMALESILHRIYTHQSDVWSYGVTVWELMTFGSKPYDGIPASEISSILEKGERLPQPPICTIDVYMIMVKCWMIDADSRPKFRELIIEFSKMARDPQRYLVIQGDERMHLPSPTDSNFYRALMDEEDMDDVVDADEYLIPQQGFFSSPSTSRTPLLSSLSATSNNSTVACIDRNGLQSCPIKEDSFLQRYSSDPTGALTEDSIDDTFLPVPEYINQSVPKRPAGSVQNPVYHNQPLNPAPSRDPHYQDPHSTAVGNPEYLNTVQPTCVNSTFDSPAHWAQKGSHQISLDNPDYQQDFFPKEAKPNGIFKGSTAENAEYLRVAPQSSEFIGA
Assay: EGFR activity: Ba/F3 cell viability (CellTiter-Glo, 72 h), EGFR exon 20 NPG insertion
Conditions: EGFR exon 20 NPG Ins D770_N771, cell viability, read-out: BaF3 NPG IC50
ENDPOINT: IC50

Example entries begin here.
| MOL_SMILES | IC50 |
| --- | --- |
| C=CC(=O)N1CCC[C@]1(C)C#Cc1cnccc1-c1[nH]c2c(c1Nc1cccc(F)c1C)C(=O)NCC2 | < 100 nM |
| COc1c(F)cccc1Nc1c(-c2ccncc2C#CC2(NC(=O)/C=C/CN(C)C)COC2)[nH]c2c1C(=O)NCC2 | 100 to 1000 nM |
| COc1c(F)cccc1Nc1c(-c2ccncc2C#C[C@@H]2CCN2C(=O)/C=C/CN(C)C)[nH]c2c1C(=O)NCC2 | < 100 nM |
| COc1c(F)cccc1Nc1c(-c2ccncc2C#CC(C)(C)NC(=O)/C=C/CN2CC(F)C2)[nH]c2c1C(=O)NCC2 | < 100 nM |
| C=CC(=O)N1[C@H]2CC[C@H](C2)[C@@H]1C#Cc1cnccc1-c1[nH]c2c(c1Nc1cccc(F)c1OC)C(=O)NCC2 | < 100 nM |

Then there is this compound:
For this compound ( `COc1c(F)cccc1Nc1c(-c2ccncc2C#CC(C)(C)NC(=O)/C=C/CN[C@H]2CCOC2)[nH]c2c1C(=O)NCC2` ), measured IC50 is 100 to 1000 nM
